# credit: the Deep4Chem optical property database

Test: solvent given as SMILES
Conditions: in OCC(F)(F)F
Label fulfilled when emission maximum is strictly below 500 nm; at or above that, label not fulfilled.

[[record]]
smiles_repr = "FC(F)(F)C(F)(F)C(F)(F)C(F)(F)C(F)(F)C(F)(F)CCOc1nnc(Cl)nn1"
class = "not fulfilled"

[[record]]
smiles_repr = "N#Cc1cccc(N)c1"
class = "fulfilled"

[[record]]
smiles_repr = "Cc1ccc(C2=C3C=C(I)C=[N+]3[B-](F)(F)n3cccc32)cc1"
class = "not fulfilled"

[[record]]
smiles_repr = "CCC1=C(C)C2=Cc3c(I)c(I)cn3[B-](F)(F)[N+]2=C1C"
class = "not fulfilled"

